Origin of values: the supplement of paper PMC9170038

# Tested on: MS2 coat protein
# assay-name: apparent KD of MS2 coat protein; designed switch direction (-1 OFF switch, 1 ON switch): -1; higher = weaker reporter binding
# condition-summary: input ligand: none
Given measured apparent KD of MS2 coat protein, output class 1 if it is greater than or equal to 70 nM and class 0 if not.

construct-sequence	category
CAGCUGAAUGUGAGGAUAUGUCGAGCCUCGGCUCGAUAGAAGGCACAUGAGGAUCACCCAUGUCUCAACAGCUG [BmEx4/2-C2] (Eterna round: R97, puzzle: Brourd's mod of Exclusion 4)	class 0
CUUAUGUCAGGAUAUUAGUAGUAAAUGAAUAAAAUUAUUACUGAGAAGGGACAUGAGGAUCACCCAUGUUCCUC [Mat - Exclusion 4 - Eli Mod - D4] (Eterna round: R97, puzzle: Exclusion 4)	class 0
CGGAUACAUGAGGAUCACCCAUGUGAGGAUAUCGUACGUUCGUCGAUAGACGAUCGUACGAGAAGGCAUGACCG [Mat - Exclusion 1 - Eli Mod - D34] (Eterna round: R97, puzzle: Exclusion 1)	class 1
ACGAUGACUGAAAGAAGUCAAAAGACAUGAGGAUCACCCAUGUAGGAUAUGGCUACGAAAAGUAGUCAGAAGGACAAGUCAUCA [Omei Exc(NG) 3 Av4] (Eterna round: R96, puzzle: Exclusion NG 3)	class 0
UUGUUACAUGAGGAUCACCCAUGUGAGGAUAUGGUUCAGUAAUGUAAUGUAAAGUACUCCAGAAGGCACAUGUU [1st #27] (Eterna round: R97, puzzle: Exclusion 1)	class 1
CUGGGUCGUGUUAGGAUAUGCUCUAGAAAGUUAGGGUAGAAGGAACAUGAGGAUCACCCAUGUGACUUCACUAG [BmEX4 B.27] (Eterna round: R97, puzzle: Brourd's mod of Exclusion 4)	class 0
AAUAAUAAAGUGAGGAUAUCUAGAGCCUCGGCUCUAGAGAAGGCACAUGAGGAUCACCCAUGUCUCAAUAAUAA [BmEx4/1-C5] (Eterna round: R97, puzzle: Brourd's mod of Exclusion 4)	class 0
CCCACAUGAGGAUAUCCAUCUGGAUCAGACAAGAUCCUGAUGGAGAAGGUACAUGAGGAUCACCCAUGUGUGGG [Mat - Exclusion 4 - Eli Mod - D60] (Eterna round: R97, puzzle: Exclusion 4)	class 1

----------
# Tested on: MS2 coat protein
# assay-name: apparent KD of MS2 coat protein; designed switch direction (-1 OFF switch, 1 ON switch): 1; higher = weaker reporter binding
# condition-summary: input ligand: none

construct-sequence	test-system	apparent KD of MS2 coat protein (nM)
GGUAGGUUACUACCAAACAUGAGGAUCACCCAUGUAAGUGGGAAGGAUAUGGUACCUAUUUGGUACCAGAAGGUCCAAUUAAUU [Fiskers NG3ss - 3] (Eterna round: R96, puzzle: Same State NG 3)	MS2 coat protein	720
AACGGUCGACAAGGAUAUGGACGGACAGGUUUGCCUGUGCGGCUCACAUGAGGAUCACCCAUGUUCUAGAAGGUGUCACCAAGA [Tiinor] (Eterna round: R96, puzzle: Same State NG 2)	MS2 coat protein	259
AAUAACAAUUUAGGAUAUCGACAGCGAAACUCACGAGAAGGAGAUAAGAGGCUGGCCUCGCGCACAUGAGGAUCACCCAUGUCG [Eternabot solution 25] (Eterna round: R96, puzzle: Same State NG 1)	MS2 coat protein	41.1
